These entries and their values trace back to ChEMBL document CHEMBL5244220.

assay: Apparent permeability across apical to basolateral side in human Caco-2 cells; assay type: ADME, cell-based
EXPERIMENTAL_ENDPOINT: Papp A→B (×10⁻⁶ cm/s)
The answer is to be given in ×10⁻⁶ cm/s; state only the numeric part.

Prompt line: Return the recorded Papp A→B value; entry: O=c1[nH]n(Cc2ccncc2)c(=O)c2c(=O)c3ccc(Cl)cc3[nH]c12
Response line: 0.2

---

test: Half life in Sprague-Dawley rat plasma at 20 mg/kg, po; assay type: ADME, organism-based
EXPERIMENTAL_ENDPOINT: half-life (h)
Write it as a number; the unit h goes unstated.

Prompt line: Please give measured half-life of the following entry: Cc1ccc(-c2cc(C(F)(F)F)nn2-c2ccc(S(N)(=O)=O)cc2)cc1
Response line: 3.5

---

biological target: GABA-A receptor; anion channel; assay: Positive allosteric modulator activity at human GABAA receptor measured by [35S]TBPS based functional assay; assay type: protein-complex assay
# IC50 listing for each entry below
Numbers only; they are read as µM.

• CC(=O)[C@H]1CCC2C3CC[C@H]4C[C@](C)(O)CC[C@]4(C)C3CC[C@@]21C (some centres not stated) = 0.08

We now examine a further compound.
Prompt line: Using known records, supply IC50 for CC(=O)[C@H]1CCC2C3CC[C@H]4C[C@H](O)CC[C@]4(C)C3CC[C@@]21C (some centres not stated)
Response line: 0.051

---

target: BCR/ABL1 (Mus musculus, UniProt P00520); test: Inhibition of Bcr-Abl phosphorylation in BALB/c mouse 3T3 by Western blot analysis
Sequence (P00520 whole entry): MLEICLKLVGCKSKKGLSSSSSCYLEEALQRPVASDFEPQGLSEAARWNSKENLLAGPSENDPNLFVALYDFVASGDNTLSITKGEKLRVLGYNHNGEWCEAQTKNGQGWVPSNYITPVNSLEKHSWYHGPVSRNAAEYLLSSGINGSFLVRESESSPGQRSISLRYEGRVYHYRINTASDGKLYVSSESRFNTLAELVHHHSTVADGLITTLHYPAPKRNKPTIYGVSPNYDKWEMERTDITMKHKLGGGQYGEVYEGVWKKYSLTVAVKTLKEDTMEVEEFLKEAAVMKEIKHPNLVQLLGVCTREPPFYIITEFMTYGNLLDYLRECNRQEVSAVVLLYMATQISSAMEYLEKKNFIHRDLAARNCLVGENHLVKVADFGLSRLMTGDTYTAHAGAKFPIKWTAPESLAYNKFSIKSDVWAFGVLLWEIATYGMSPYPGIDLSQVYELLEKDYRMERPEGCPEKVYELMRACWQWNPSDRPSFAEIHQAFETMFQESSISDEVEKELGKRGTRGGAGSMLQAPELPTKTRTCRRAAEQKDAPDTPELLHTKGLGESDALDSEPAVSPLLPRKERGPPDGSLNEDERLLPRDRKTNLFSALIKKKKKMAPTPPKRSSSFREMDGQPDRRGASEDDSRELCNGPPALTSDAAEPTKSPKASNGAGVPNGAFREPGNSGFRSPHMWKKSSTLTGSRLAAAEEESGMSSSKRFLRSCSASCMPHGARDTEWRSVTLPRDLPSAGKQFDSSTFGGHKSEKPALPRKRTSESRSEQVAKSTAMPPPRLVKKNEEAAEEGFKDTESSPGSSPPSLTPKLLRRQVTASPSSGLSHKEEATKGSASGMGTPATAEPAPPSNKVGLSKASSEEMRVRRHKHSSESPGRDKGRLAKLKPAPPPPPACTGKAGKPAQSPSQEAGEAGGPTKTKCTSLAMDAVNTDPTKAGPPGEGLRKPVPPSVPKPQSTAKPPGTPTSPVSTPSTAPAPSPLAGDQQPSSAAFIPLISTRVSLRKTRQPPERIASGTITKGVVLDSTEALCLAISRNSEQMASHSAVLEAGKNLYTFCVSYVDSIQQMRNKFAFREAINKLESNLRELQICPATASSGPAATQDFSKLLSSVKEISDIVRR
Sequence (Q6PAJ1 whole entry, further chain): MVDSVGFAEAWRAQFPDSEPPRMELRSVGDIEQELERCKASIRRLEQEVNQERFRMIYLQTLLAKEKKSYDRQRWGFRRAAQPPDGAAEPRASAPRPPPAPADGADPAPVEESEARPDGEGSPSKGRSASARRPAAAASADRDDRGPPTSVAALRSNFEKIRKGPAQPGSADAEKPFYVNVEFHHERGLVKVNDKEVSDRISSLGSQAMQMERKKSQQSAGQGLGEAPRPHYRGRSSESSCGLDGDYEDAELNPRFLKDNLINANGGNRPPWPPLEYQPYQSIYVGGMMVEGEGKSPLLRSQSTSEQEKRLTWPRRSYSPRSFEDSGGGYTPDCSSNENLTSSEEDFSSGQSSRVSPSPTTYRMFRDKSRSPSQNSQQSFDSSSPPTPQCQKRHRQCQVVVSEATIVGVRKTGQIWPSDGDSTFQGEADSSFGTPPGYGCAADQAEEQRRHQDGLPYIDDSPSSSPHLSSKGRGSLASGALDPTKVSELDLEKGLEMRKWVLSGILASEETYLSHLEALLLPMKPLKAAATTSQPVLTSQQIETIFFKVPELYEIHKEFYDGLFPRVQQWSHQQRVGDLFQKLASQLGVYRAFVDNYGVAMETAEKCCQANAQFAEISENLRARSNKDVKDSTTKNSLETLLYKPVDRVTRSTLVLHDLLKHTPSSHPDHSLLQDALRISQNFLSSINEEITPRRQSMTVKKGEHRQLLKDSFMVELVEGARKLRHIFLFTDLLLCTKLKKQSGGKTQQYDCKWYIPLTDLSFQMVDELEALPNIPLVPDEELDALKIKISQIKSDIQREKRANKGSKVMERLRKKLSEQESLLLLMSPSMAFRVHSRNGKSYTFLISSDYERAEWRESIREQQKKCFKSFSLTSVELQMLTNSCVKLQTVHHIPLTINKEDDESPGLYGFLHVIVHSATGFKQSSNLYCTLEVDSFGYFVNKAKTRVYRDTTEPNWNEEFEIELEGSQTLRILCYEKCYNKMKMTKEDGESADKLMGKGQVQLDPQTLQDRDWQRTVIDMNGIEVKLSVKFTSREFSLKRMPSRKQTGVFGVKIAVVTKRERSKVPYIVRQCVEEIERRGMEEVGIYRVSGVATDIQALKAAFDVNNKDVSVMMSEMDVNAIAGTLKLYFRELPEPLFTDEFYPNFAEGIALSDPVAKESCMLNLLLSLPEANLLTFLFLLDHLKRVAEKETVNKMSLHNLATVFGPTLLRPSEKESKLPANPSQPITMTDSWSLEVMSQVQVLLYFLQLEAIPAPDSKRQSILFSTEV
EXPERIMENTAL_ENDPOINT: pIC50
Scale: pIC50 equals -log10([C]), with [C] in mol/L.

Prompt line: Identify measured pIC50 associated with CN1CCN(Cc2ccc(C(=O)Nc3cccc(Nc4nccc(-c5cccnc5)n4)c3)cc2)CC1
Response line: 7.00

---

Target: Orexin/Hypocretin receptor type 1 (Homo sapiens)
Sequence (O43613 whole entry): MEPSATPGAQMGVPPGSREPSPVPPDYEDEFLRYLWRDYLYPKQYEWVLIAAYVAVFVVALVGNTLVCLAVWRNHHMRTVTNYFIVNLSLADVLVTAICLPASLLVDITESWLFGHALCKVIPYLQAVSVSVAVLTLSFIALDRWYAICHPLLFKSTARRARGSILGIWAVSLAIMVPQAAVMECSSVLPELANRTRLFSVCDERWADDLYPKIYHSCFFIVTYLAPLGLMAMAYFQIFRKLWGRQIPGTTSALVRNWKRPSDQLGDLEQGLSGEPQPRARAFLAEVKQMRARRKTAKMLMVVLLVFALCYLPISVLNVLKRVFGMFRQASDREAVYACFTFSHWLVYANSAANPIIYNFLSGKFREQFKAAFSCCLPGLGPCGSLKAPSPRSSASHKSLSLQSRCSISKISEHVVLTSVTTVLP
Assay: Antagonist activity at human OX1R by FLIPR assay
Ki values for the compounds below.
Answer with the figure and its unit, nothing else.

- Cc1ccc(-n2nccn2)c(C(=O)N2CCC[C@@H](COc3ccc(F)cn3)C2)c1: 96 nM

Read the next record carefully.
Prompt line: Provide Ki value for the following compound: COc1cccc(OC)c1C(=O)N1CCCN(c2nc3ccc(Cl)cc3s2)CC1
Response line: 150 nM

---

experiment: Half life in rat plasma; assay type: ADME, cell-free
EXPERIMENTAL_ENDPOINT: half-life (h)
State just the number; it will be interpreted in h.

Prompt line: Retrieve half-life measured for Cc1ccc(-c2ncc(Cl)cc2-c2ccc(S(C)(=O)=O)cc2)cn1 [ETORICOXIB] and print it.
Response line: 2

---

assay: Oral bioavailability in Sprague-Dawley rat at 2 mg/kg; type: ADME, organism-based; details: in vivo
EXPERIMENTAL_ENDPOINT: bioavailability (%)
Provide only the numeric value, understood in %.

Prompt line: Give the reported bioavailability for this compound. Cc1ccc(-c2ncccn2)c(C(=O)N2C[C@H](COc3ccc(F)cn3)CC[C@H]2C)c1
Response line: 25

---

assay: Terminal half life in po dosed mouse; assay type: ADME, organism-based; conditions: in vivo, read-out: beta t1/2 (converted)
EXPERIMENTAL_ENDPOINT: half-life (h)
Answer format: numeric, h implied, no suffix.

Prompt line: Hello, please tell me recorded half-life for this one: O=c1[nH]nc(CN2CCO[C@H](OCc3cc(C(F)(F)F)cc(C(F)(F)F)c3)[C@@H]2c2ccc(F)cc2)[nH]1
Response line: 3

---

test: Terminal half life in po dosed human; type: ADME, organism-based; conditions: in vivo, read-out: beta t1/2 (converted)
EXPERIMENTAL_ENDPOINT: half-life (h)
Expressed in h, but write only the number.

Prompt line: Supply recorded half-life for O=c1[nH]nc(CN2CCO[C@H](OCc3cc(C(F)(F)F)cc(C(F)(F)F)c3)[C@@H]2c2ccc(F)cc2)[nH]1 here.
Response line: 9

---

experiment: clinical; conditions: human, plasma, po, 100 mg
EXPERIMENTAL_ENDPOINT: half-life (h)
Enter your answer as a number in h; do not include the unit.

Prompt line: Answer with the recorded half-life of Cc1ccc(-c2cc(C(F)(F)F)nn2-c2ccc(S(N)(=O)=O)cc2)cc1 [CELECOXIB] only.
Response line: 12

---

assay: Aqueous solubility of compound; assay type: physicochemical
The entries below are paired with their reported solubility.

• CC(c1ccncc1)n1[nH]c(=O)c2[nH]c3cc(Cl)ccc3c(=O)c2c1=O (stereo not drawn) = > 290 µg/mL
• Cc1ccc(-c2ncccn2)c(C(=O)N2C[C@H](COc3ccc(F)cn3)CC[C@H]2C)c1 = 192 µM

Proceed to the following item.
Prompt line: Complete the entry with solubility for Cc1ccc(-n2nccn2)c(C(=O)N2C[C@H](COc3ccc(F)cn3)CC[C@H]2C)c1
Response line: < 24 µM

---

target: Orexin receptor type 2 (Homo sapiens); experiment: Antagonist activity at human OX2R by FLIPR assay
Sequence (O43614 whole entry): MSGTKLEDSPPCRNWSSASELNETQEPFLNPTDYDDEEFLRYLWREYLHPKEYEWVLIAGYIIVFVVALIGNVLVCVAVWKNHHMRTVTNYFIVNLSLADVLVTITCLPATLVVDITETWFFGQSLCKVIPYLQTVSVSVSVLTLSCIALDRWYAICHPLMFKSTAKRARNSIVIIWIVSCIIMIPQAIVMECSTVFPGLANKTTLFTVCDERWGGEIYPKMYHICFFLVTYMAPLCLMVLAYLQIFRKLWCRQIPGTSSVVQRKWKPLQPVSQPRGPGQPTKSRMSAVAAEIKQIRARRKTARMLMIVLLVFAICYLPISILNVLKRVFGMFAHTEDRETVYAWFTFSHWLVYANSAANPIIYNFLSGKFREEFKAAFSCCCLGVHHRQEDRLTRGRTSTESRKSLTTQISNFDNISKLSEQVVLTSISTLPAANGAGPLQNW
EXPERIMENTAL_ENDPOINT: pKi
Remember, pKi is on a log scale: it is -log10 of the molar concentration.

Prompt line: Report pKi, nothing else, for this compound: Cc1ccc(-n2nccn2)c(C(=O)N2CCC[C@@H](COc3ccc(F)cn3)C2)c1
Response line: 7.54
